Answer each item with its documented ratio of specific signal, LAB.
# Tested on: TSPO
# Method description: Competition binding with [3H]PK11195 in human brain (method of J Nucl Med 2011;52:24-32)
# Experimental context: LAB set to 1
Answers are plain numbers.

Here are 4 compounds together with their reported answers.
Compound	Measured quantity	Test value
COc1ccc(OC)c(CN(C(C)=O)c2cc(F)ccc2Oc2ccccc2)c1 [DAA1106]	ratio of specific signal, LAB	1
CCN(CC)C(=O)C1CCCC2C1c1c(OC)cccc1N2CCF (centres unmarked) [GE1]	ratio of specific signal, LAB	1
CCN(CC)C(=O)Cc1c(-c2ccc(OCCCF)cc2)nc2ccc(Cl)cn12 [PBR111]	ratio of specific signal, LAB	1
COc1ccc(OC)c(CN(C(=O)CF)c2ccccc2Oc2ccccc2)c1 [PBR06]	ratio of specific signal, LAB	1

Shifting focus to the compound that follows.
Ask | Could you share which ratio of specific signal, LAB value was measured for CC(=O)N(Cc1ccccc1O[11CH3])c1cnccc1Oc1ccccc1 [PBR28] ?
Reply | 1

---

# System: TSPO
# Method description: Competition binding with [3H]PK11195 in human brain (method of J Nucl Med 2011;52:24-32)
# Experimental context: relative to LAB = 1
Label 0.0 if ratio of specific signal, MAB falls below 9; label 1.0 in every other case.

Use these answered entries as a reference point.
Compound	Class
CCN(CC)C(=O)C1CCCC2C1c1c(OC)cccc1N2CCF (centres unmarked)	0.0
CC(=O)N(Cc1ccccc1O[11CH3])c1cnccc1Oc1ccccc1	1.0
COc1ccc(OC)c(CN(C(C)=O)c2cc(F)ccc2Oc2ccccc2)c1	0.0

// next entry
Ask | For this compound, is measured ratio of specific signal, MAB 9 or higher? "CCN(CC)C(=O)Cc1c(-c2ccc(OCCCF)cc2)nc2ccc(Cl)cn12"
Reply | 0.0

---

# Assayed system: TSPO (Homo sapiens)
# Method description: Competition binding with [3H]PK11195 in human brain (method of J Nucl Med 2011;52:24-32)
# Parameters: from tissue; host or cells: human brain (membrane preparation, by the cited method)
# Experimental context: mixed affinity binders, two values given, human brain; read-out: Ki MAB, second (low affinity) value
Answer each item with its documented Ki.
Give bare numbers, in nM.

// for each compound below, give its Ki
1. COc1ccccc1CN(C(C)=O)c1cnccc1Oc1ccccc1
2. COc1ccc(OC)c(CN(C(=O)CF)c2ccccc2Oc2ccccc2)c1

Reply |
313
176

---

# Assayed system: TSPO (Homo sapiens, UniProt P30536, T147A)
# Sequence (P30536 2-169 T147A): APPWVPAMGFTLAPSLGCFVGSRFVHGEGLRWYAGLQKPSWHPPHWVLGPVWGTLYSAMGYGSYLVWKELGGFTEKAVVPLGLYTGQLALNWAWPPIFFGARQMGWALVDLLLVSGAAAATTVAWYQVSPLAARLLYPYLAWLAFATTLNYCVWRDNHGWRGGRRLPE
# Method description: Competition binding with [3H]PK11195 in human brain (method of J Nucl Med 2011;52:24-32)
# Design: from tissue; host or cells: human brain (membrane preparation, by the cited method)
# Experimental context: high affinity binders, human brain; nM; read-out: Ki HAB
Returns: string. Value is criterion met if measured Ki is below 3 nM, and criterion not met if it is greater than or equal to it.

Use these answered entries as a reference point.
Compound	Class
COc1ccc(OC)c(CN(C(C)=O)c2cc(F)ccc2Oc2ccccc2)c1 [DAA1106]	criterion met
CCN(CC)C(=O)C1CCCC2C1c1c(OC)cccc1N2CCF (stereo not drawn) [GE1]	criterion not met
CCN(Cc1ccccc1)C(=O)Cn1c(=O)n(C)c2cnc(-c3ccccc3)nc21 [Emapunil]	criterion met

Ask | Hello, is Ki of the following compound strictly smaller than 3 nM? COc1ccccc1CN(C(C)=O)c1cnccc1Oc1ccccc1 [PBR28]
Reply | criterion not met

Ask | Hello, is Ki of the following compound strictly smaller than 3 nM? CCN(CC)C(=O)Cc1c(-c2ccc(OCCCF)cc2)nc2ccc(Cl)cn12 [PBR111]
Reply | criterion not met

Ask | Hello, is Ki of the following compound strictly smaller than 3 nM? COc1ccc(OC)c(CN(C(=O)CF)c2ccccc2Oc2ccccc2)c1 [PBR06]
Reply | criterion not met
